Recorded measurements of IC50, one per entry
molecular target: UniProt:Q15118
Sequence (Q15118 whole entry): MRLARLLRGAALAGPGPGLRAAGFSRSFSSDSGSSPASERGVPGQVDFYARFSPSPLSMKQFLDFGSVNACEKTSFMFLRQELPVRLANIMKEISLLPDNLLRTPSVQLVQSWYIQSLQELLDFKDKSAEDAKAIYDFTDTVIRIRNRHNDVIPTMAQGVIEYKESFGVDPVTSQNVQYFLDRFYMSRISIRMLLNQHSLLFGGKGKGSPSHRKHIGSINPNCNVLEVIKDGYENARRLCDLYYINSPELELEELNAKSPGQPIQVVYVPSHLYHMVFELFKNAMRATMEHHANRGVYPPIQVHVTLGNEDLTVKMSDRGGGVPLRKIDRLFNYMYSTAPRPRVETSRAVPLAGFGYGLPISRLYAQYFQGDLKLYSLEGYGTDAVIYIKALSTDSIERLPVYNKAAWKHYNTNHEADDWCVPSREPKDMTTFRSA
Quick note: number first, unit second.

Use these answered entries as a reference point.
| compound | IC50 |
| --- | --- |
| COc1cnc(Cl)nc1-c1ccc(N(Cc2cccnc2)C(=O)c2ccc(O)cc2O)cc1 | 10 nM |
| N#Cc1cc(Cl)nc(-c2ccc(N(Cc3cccnc3)C(=O)c3ccc(O)cc3O)cc2)c1 | 100 nM |
| CC(c1ccccc1)N(C(=O)c1cc(Cl)c(O)cc1O)c1ccc(C(=O)N(C)C)cc1 (centres undefined) | 100 nM |
| Cc1cnc(Cl)nc1-c1ccc(N(C(=O)c2ccc(O)cc2O)[C@H](C)c2ccccc2)cc1 | 100 nM |
| Cc1nc(N)ccc1-c1ccc(N(Cc2ccccc2)C(=O)c2ccc(O)cc2O)cc1 | 1000 nM |
| O=C(c1ccc(O)cc1O)N(Cc1ccsc1)c1ccc(-c2nc(C(F)(F)F)ccc2C(F)(F)F)cc1 | 1000 nM |

Give me measured IC50, please, for this compound: CCNC(=O)Nc1ccc(N(Cc2ccccc2)C(=O)c2ccc(O)cc2O)cc1 1000 nM

Give me measured IC50, please, for this compound: Cc1noc(-c2ccccc2CN(C(=O)c2ccc(O)cc2O)c2ccc(-c3nc4ccccc4cc3C)cc2)n1 10 nM

Give me measured IC50, please, for this compound: Cc1cc2[nH]c(=O)[nH]c2cc1-c1ccc(N(Cc2ccccc2)C(=O)c2ccc(O)cc2O)cc1 10000 nM
